- Test system: Escherichia coli TOP10;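 further: peptides expressed intracellularly from a pBAD plasmid library in pooled LB shake-flask culture, induced with 0.3% L-arabinose, DNA abundance read by NGS, three biological replicates, DESeq2 with apeglm shrinkage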
- method-notes: shrunken log2 fold change of peptide-encoding DNA abundance (4.5 h post-induction vs induction); higher = less antimicrobial activity (less host growth inhibition)
- setup-conditions: time post-induction: 4.5 h; library: site-saturation at positions 5, 18, 19, 20
readout-label: shrunken log2 fold change
Answers are plain numbers.

{"seq-text": "RRIRHRPPRLPRPRPRPFCFPRP", "subject-of-test": "Escherichia coli TOP10", "readout-label": "shrunken log2 fold change", "meas-value": -0.215}
{"seq-text": "RRIRMRPPRLPRPRPRPKADPRP", "subject-of-test": "Escherichia coli TOP10", "readout-label": "shrunken log2 fold change", "meas-value": 2.35}
{"seq-text": "RRIRLRPPRLPRPRPRPGGAPRP", "subject-of-test": "Escherichia coli TOP10", "readout-label": "shrunken log2 fold change", "meas-value": 0.384}
{"seq-text": "RRIRSRPPRLPRPRPRPNQSPRP", "subject-of-test": "Escherichia coli TOP10", "readout-label": "shrunken log2 fold change", "meas-value": -0.0432}
{"seq-text": "RRIRQRPPRLPRPRPRPMKEPRP", "subject-of-test": "Escherichia coli TOP10", "readout-label": "shrunken log2 fold change", "meas-value": -0.0272}
{"seq-text": "RRIRMRPPRLPRPRPRPHGWPRP", "subject-of-test": "Escherichia coli TOP10", "readout-label": "shrunken log2 fold change", "meas-value": 0.839}
{"seq-text": "RRIRIRPPRLPRPRPRPNLRPRP", "subject-of-test": "Escherichia coli TOP10", "readout-label": "shrunken log2 fold change", "meas-value": -0.117}
{"seq-text": "RRIRCRPPRLPRPRPRPNERPRP", "subject-of-test": "Escherichia coli TOP10", "readout-label": "shrunken log2 fold change", "meas-value": 0.0333}
{"seq-text": "RRIRDRPPRLPRPRPRPYAFPRP", "subject-of-test": "Escherichia coli TOP10", "readout-label": "shrunken log2 fold change", "meas-value": -0.187}
{"seq-text": "RRIRTRPPRLPRPRPRPILKPRP", "subject-of-test": "Escherichia coli TOP10", "readout-label": "shrunken log2 fold change", "meas-value": -0.348}

// batch mode: one shrunken log2 fold change value per listed entry
1. RRIRIRPPRLPRPRPRPLAPPRP
2. RRIRVRPPRLPRPRPRPKAEPRP

[0.157, -0.00229]
